So I've got a bunch of compounds here, and I need their IC50 values.
- EXPERIMENTAL SYSTEM: NLRP3 (Homo sapiens, UniProt Q96P20)
- Sequence (Q96P20 whole entry): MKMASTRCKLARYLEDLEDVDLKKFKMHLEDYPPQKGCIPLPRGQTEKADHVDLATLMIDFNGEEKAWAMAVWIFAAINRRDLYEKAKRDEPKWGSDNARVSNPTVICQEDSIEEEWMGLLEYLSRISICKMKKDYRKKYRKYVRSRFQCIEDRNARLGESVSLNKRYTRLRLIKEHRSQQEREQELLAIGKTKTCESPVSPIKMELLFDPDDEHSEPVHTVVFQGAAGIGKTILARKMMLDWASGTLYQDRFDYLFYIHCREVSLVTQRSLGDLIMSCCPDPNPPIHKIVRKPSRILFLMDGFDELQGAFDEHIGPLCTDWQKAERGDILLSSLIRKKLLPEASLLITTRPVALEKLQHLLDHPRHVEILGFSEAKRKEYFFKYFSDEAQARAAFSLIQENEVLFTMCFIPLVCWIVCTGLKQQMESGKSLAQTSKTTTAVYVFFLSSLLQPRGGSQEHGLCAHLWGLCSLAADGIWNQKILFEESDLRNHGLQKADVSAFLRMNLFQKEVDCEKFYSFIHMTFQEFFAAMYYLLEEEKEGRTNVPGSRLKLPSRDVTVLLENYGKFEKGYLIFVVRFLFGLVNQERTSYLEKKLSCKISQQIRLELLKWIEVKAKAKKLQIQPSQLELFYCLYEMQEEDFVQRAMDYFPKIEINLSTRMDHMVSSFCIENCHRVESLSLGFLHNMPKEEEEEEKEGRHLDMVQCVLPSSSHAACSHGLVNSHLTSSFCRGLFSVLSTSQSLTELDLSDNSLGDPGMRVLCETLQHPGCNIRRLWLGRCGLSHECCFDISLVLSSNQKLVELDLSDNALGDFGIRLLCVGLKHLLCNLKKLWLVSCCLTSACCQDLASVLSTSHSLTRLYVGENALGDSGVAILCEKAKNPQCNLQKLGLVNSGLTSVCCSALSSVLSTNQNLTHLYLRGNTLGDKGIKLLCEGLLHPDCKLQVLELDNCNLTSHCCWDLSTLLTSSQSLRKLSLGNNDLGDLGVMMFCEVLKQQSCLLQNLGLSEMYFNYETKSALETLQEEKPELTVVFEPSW
- ASSAY NOTES: Human whole blood IL1β release assay (LPS + nigericin, AlphaLisa IL-1β; HWB IC50)
- Assay type: cell-based
- Parameters: Human whole blood in Li-heparin tubes was obtained from healthy donors from a volunteer donor panel; from tissue; host or cells: human whole blood from healthy donors
- PARTICULARS: IL-1β release
Where a name gives a salt, the structure may show the parent alone.

Solved cases below.
[
  {
    "COMPOUND": "COc1cc(-c2cc(F)cc(C(C)C)c2NC(=O)NS(=O)(=O)c2cc(CN(C)C)n(C(C)C)n2)ccn1",
    "OBSERVED RESULT": "≤ 500 nM"
  },
  {
    "COMPOUND": "COc1cc(-c2ccc3c(c2NC(=O)NS(=O)(=O)c2ccn(C[C@@H](C)O)n2)CCC3)ccn1",
    "OBSERVED RESULT": "≤ 500 nM"
  }
]

Next:
Enquiry: Which IC50 is listed for COc1cc(-c2ccc3c(c2NC(=O)NS(=O)(=O)c2ccn(C(C)C)n2)CCO3)ccn1 [Example 224, sodium salt] ?
Return: ≤ 500 nM
